experiment: yeast display, Sf9 membrane polyspecificity reagent, FACS + sequencing; frameworks hold sequencing errors
ENDPOINT LABEL: polyreactivity (PSR sort gate)

INPUT SEQUENCE: QVQLVESGGGLVQAGGSLRLSCAASGSTFDSNDMGWSRQAPGKERELVAAITWSGGSTYYADSVKGRFTISRDNAKNTVYLQMNSLKPEDTAVYYCAATSGRAFKYDYWGQGTQVTVSS
ENDPOINT LABEL: polyreactivity (PSR sort gate)
MEASURED VALUE: high polyreactivity
//
INPUT SEQUENCE: QVQLLESGGRLVQAGGSLRLSCAPSGFIFISYALGWYRQAPGKERELDAAIDWRGGSSTYYADSVKGRFTISRDNAKNTVYFPMISLKPEDTAVYYCAAEGVTWYLWDFYDFYGYWGQGTQVTVSS
ENDPOINT LABEL: polyreactivity (PSR sort gate)
MEASURED VALUE: high polyreactivity
//
INPUT SEQUENCE: QVQLVESGGGLVQAGGSLRLSCAASGRTFPGYGMGWYRQAPGKERELVAVITSNGGITYYADSVKGRFTISRDNAKNTVYLQMNSLKPEDTAVYYCAAQNVWFYGFWRDYWGQGTQVTVSS
ENDPOINT LABEL: polyreactivity (PSR sort gate)
MEASURED VALUE: low polyreactivity
//
INPUT SEQUENCE: QVQLVESGGGLVQAGGSLRLSCAASGSIFSYYTMGWYRQAPGKERELVAAITRGGRTSYADSVKGRFTISRDNAKNTVYLQMNSLKPEDTAVYYCAADYWYFTHQLSTYGDNYWGQGTQVTVSS
ENDPOINT LABEL: polyreactivity (PSR sort gate)
MEASURED VALUE: low polyreactivity
//
INPUT SEQUENCE: QVQLVESGGGLVQAGGSLRLSCAASGSTFTKNAMGWYRPAPGKERELVAVISSGGSTNYADSVKGRFTISRDNAKNTVDLQMNSLKPEDTAVYYCAAEHYILYDYLWAYDYWGQGTQVTVSS
ENDPOINT LABEL: polyreactivity (PSR sort gate)
MEASURED VALUE: high polyreactivity

Sourced from the nanobody polyreactivity screen of Harvey et al. (2022)
